This collection of values is drawn from paper PMC12005307.

# Test system: P. aeruginosa LESB58
# procedure-details: Checkerboard titration assay (in vitro synergy)
# Type: cell-based, Pseudomonas aeruginosa
# test-context: checkerboard, DFG, 1 × 10^6 CFU/mL, 37 °C, 16–24 h; >0.5 and <=1 additive
measured-property: FICI, antibiotic combination with TM18
Number only, please.

See these solved cases before continuing.
CC[C@H]1OC(=O)[C@H](C)[C@@H](O[C@H]2C[C@@](C)(OC)[C@@H](O)[C@H](C)O2)[C@H](C)[C@@H](O[C@@H]2O[C@H](C)C[C@H](N(C)C)[C@H]2O)[C@](C)(O)C[C@@H](C)CN(C)[C@H](C)[C@@H](O)[C@]1(C)O | 0.625
NC[C@H]1O[C@H](O[C@H]2[C@H](O)[C@@H](O[C@H]3O[C@H](CO)[C@@H](O)[C@H](N)[C@H]3O)[C@H](N)C[C@@H]2N)[C@H](N)C[C@@H]1O | 1
CC(C)(O/N=C(\C(=O)N[C@@H]1C(=O)N2C(C(=O)[O-])=C(C[n+]3ccccc3)CS[C@H]12)c1csc(N)n1)C(=O)O | 0.75
O=C(O)c1cn(C2CC2)c2cc(N3CCNCC3)c(F)cc2c1=O | 1

Prompt: Provide one value: measured FICI, antibiotic combination with TM18 of C[C@@H](O)[C@H]1C(=O)N2C(C(=O)O)=C(S[C@@H]3CN[C@H](C(=O)N(C)C)C3)[C@H](C)[C@H]12
Response: 1

Prompt: Provide one value: measured FICI, antibiotic combination with TM18 of CNC(C)C1CCC(N)C(OC2C(N)CC(N)C(OC3OCC(C)(O)C(NC)C3O)C2O)O1 (stereo not drawn)
Response: 1
